Values were extracted from ChEMBL document CHEMBL3046962.

# System: Escherichia coli
# method.description: Antimicrobial activity against Escherichia coli DH5[alpha] at 100 ug after 24 hr by agar disk diffusion method
# Type: functional
# condition.description: read-out: DIZ
Parameter threshold = 2 mm. Response is class 1 when zone of inhibition at 100 µg/disc meets or exceeds it, else class 0.

Consider the worked cases shown below.
chemical.smiles	class.label
COc1ccc(C(=O)/C=C/c2c(OC)cc(OC)c(C3=CCN(C)CC3)c2OC)cc1	class 1
COc1cc(OC)c(C2=CCN(C)CC2)c(OC)c1/C=C/C(=O)c1ccc(Cl)cc1	class 1
COc1ccc(OC)c(C(=O)/C=C/c2c(OC)cc(OC)c(C3=CCN(C)CC3)c2OC)c1	class 1
COc1cc(OC)c(C2=CCN(C)CC2)c(OC)c1/C=C/C(=O)c1ccc(F)cc1	class 1
COc1ccc(C(=O)/C=C/c2c(OC)cc(OC)c(C3=CCN(C)CC3)c2OC)c(OC)c1	class 1
COc1cc(OC)c(C2=CCN(C)CC2)c(OC)c1/C=C/C(=O)c1cc(Cl)ccc1Cl	class 0

Continue with the compound presented below.
State whether the measured zone of inhibition at 100 µg/disc reaches 2 mm, counting equality as reaching it, for `COc1cc(OC)c(C2=CCN(C)CC2)c(OC)c1/C=C/C(=O)c1ccc(C)cc1` class 1

###

Catalogue of zone of inhibition at 100 µg/disc readings, one per entry.
# System: Proteus vulgaris
# method.description: Antimicrobial activity against Proteus vulgaris MTCC 1751 at 100 ug after 24 hr by agar disk diffusion method
# Assay type: functional
# condition.description: MTCC 1751, 24 h, read-out: DIZ
Numeric answer only, unit mm assumed.

chemical.smiles	study.target	unit.tag	zone of inhibition at 100 µg/disc
COc1cc(OC)c(C2=CCN(C)CC2)c(OC)c1/C=C/C(=O)c1cccc(N)c1	Proteus vulgaris	mm	7
COc1cc(OC)c(C2=CCN(C)CC2)c(OC)c1/C=C/C(=O)c1cc(Cl)ccc1Cl	Proteus vulgaris	mm	6.5
COc1cc(OC)c(C(=O)/C=C/c2c(OC)cc(OC)c(C3=CCN(C)CC3)c2OC)c(OC)c1	Proteus vulgaris	mm	3.5
COc1cc(OC)c(C2=CCN(C)CC2)c(OC)c1/C=C/C(=O)c1ccc(Cl)cc1Cl	Proteus vulgaris	mm	5.5
COc1cc(OC)c(C2=CCN(C)CC2)c(OC)c1/C=C/C(=O)c1ccc(N)cc1	Proteus vulgaris	mm	5
COc1cc(OC)c(C2=CCN(C)CC2)c(OC)c1/C=C/C(=O)c1ccc(Cl)cc1	Proteus vulgaris	mm	3
COc1ccc(C(=O)/C=C/c2c(OC)cc(OC)c(C3=CCN(C)CC3)c2OC)c(OC)c1	Proteus vulgaris	mm	3.5
COc1cc(OC)c(C2=CCN(C)CC2)c(OC)c1/C=C/C(=O)c1ccc(F)c(F)c1	Proteus vulgaris	mm	4
COc1cc(OC)c(C2=CCN(C)CC2)c(OC)c1/C=C/C(=O)c1ccc(F)cc1	Proteus vulgaris	mm	7.5
COc1cc(OC)c(C2=CCN(C)CC2)c(OC)c1/C=C/C(=O)c1ccccc1	Proteus vulgaris	mm	2.5

Look up and state reported zone of inhibition at 100 µg/disc for `COc1cc(OC)c(C2=CCN(C)CC2)c(OC)c1/C=C/C(=O)c1ccc(Cl)c(Cl)c1` 9.1

Fill in zone of inhibition at 100 µg/disc for record `COc1ccc(OC)c(C(=O)/C=C/c2c(OC)cc(OC)c(C3=CCN(C)CC3)c2OC)c1` 5

Note down zone of inhibition at 100 µg/disc recorded for `COc1cc(OC)c(C2=CCN(C)CC2)c(OC)c1/C=C/C(=O)c1ccc[nH]1` 3

State its zone of inhibition at 100 µg/disc: `COc1cc(OC)c(C2=CCN(C)CC2)c(OC)c1/C=C/C(=O)c1ccc([N+](=O)[O-])cc1` 4

Specify zone of inhibition at 100 µg/disc for `COc1ccc(C(=O)/C=C/c2c(OC)cc(OC)c(C3=CCN(C)CC3)c2OC)cc1` and stop. 7
